TARGET_SYSTEM: Aspartate--tRNA(Asp/Asn) ligase (Mycobacterium tuberculosis (strain ATCC 25618 / H37Rv))
Sequence (whole entry): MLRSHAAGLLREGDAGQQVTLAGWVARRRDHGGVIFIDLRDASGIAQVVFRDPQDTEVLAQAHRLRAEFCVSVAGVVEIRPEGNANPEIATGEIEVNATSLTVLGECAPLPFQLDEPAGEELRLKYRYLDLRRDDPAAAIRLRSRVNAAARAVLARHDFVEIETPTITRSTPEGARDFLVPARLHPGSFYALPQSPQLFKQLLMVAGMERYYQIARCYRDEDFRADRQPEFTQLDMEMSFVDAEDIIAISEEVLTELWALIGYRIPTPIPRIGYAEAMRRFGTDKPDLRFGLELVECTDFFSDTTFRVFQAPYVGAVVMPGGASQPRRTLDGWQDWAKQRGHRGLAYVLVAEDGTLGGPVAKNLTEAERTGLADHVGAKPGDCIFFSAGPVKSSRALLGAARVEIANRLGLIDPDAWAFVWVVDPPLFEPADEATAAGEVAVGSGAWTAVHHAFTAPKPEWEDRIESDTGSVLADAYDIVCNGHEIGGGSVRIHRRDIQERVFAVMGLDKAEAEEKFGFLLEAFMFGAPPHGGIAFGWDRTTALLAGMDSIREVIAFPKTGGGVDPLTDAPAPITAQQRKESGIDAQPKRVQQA
ASSAY_INFO: Assay for Asp RNA synthetase-1 from Mycobacterium tuberculosis
Type: functional
Parameters: scale not given: in the data most compounds retested in dose-response had high values
EXPERIMENTAL_SETUP: 30 µM
MEASURED_METRIC: Percent Effect (%)

In [3]: df
Out[3]:
                                    compound  measured_metric  unit_symbol  endpoint_result
 0                    COCc1nc(CNC2CCSCC2)no1   Percent Effect            %               -4
 1      O=C(NCc1cncc2c1CCN(Cc1cccs1)C2)C1CC1   Percent Effect            %             7.52
 2  Cc1ccc(CC(=O)N2CCCC(c3nc(C)cs3)C2)cn1 (stereo not given)   Percent Effect            %             2.77
 3  CN(C)C(=O)CC1CC2(CCNCC2)c2cc(F)ccc21 (stereo not given)   Percent Effect            %             2.15
 4      CC(C)c1nccn1CCCNC(=O)c1ccc(N(C)C)nc1   Percent Effect            %            -2.17
 5                     CCn1nccc1CNC(=O)C1CC1   Percent Effect            %               11
 6  CCc1nc(CN2CCCC(NCc3cc(C)no3)C2)no1 (stereo not given)   Percent Effect            %             3.46
 7     O=C(Nc1ccc(N2CCCC2)nc1)N1CCc2ccccc2C1   Percent Effect            %             2.91
 8    COc1ccccc1S(=O)(=O)N1CCC(Oc2cccnn2)CC1   Percent Effect            %            -2.24
 9          NC(=O)N1CC2(CCNCC2)c2cc(Cl)ccc21   Percent Effect            %            0.933
10  Cn1cccc1C(=O)NCc1cnc2n1CCN(C(=O)N1CCCC1)C2   Percent Effect            %           -0.495
11  O=C(O)c1cc(S(=O)(=O)Nc2ccc(Cl)cc2)cc2c1OCCO2   Percent Effect            %           0.0437
12  CN(C)C(=O)Cc1nc(CN2CCn3c(nnc3C3CC3)C2)cs1   Percent Effect            %            -1.22
13  COc1cccc(-c2noc(C3CCN(Cc4cccs4)C3)n2)c1 (stereo not given)   Percent Effect            %           -0.868
14  CC(C(=O)N1CCCC1)N1CCC(c2nccn2CC2CCC2)CC1 (stereo not given)   Percent Effect            %            -1.49
15  O=C(Cc1ccc(-n2cccn2)cc1)N1CCN2CCCCC2C1 (stereo not given)   Percent Effect            %            -7.19
16       CC(=O)N1CCCN(C(=O)CCc2c(C)noc2C)CC1   Percent Effect            %            -5.26
17  CCN1CC(C(=O)NC(C)(C)CC(C)(C)C)CC1=O (stereo not given)   Percent Effect            %             2.27
18  CC(C)(C)OC(=O)N1CCCC[C@H]1C(=O)NCc1nccs1   Percent Effect            %            -1.06
19  Cn1nc(C2CCCN(C(=O)CO)C2)cc1O (stereo not given)   Percent Effect            %             3.92
20  CNc1nc(C)c(C(=O)N2CCCCC2CN2CCCCCC2)s1 (stereo not given)   Percent Effect            %             1.75
21  CCN(CC)Cc1cn2c(n1)CN(C(=O)c1cc(C)on1)CC2   Percent Effect            %             3.22
22       Cn1cc(-c2cnc(N3CCOCC3)nc2)cc1C(=O)O   Percent Effect            %            -4.12
23         O=C(NCC(=O)N1CCCCC1)c1ccc(Cl)cc1I   Percent Effect            %            0.257
24  CN(C)CCN1CCOCC2(C1)CN(Cc1ccsc1)CCO2 (stereo not given)   Percent Effect            %             6.63

The origin of these recorded values is ChEMBL document CHEMBL3988442.
